# assay: Measurement of log P values by HPLC on reversed phase columns (methods [a] pH 2.3, [b] pH 2.7, [c] pH 7.8)
# Type: physicochemical
# settings: HPLC reversed phase, method [b] (pH 2.7)

{"compound": "O=C(N[C@@H]1CC[C@@H]1c1ccccc1Cl)c1sccc1I (relative stereo)", "logP": "3.72^[b]"}
{"compound": "O=C(N[C@@H]1CCC[C@@H]1c1ccccc1F)c1ccccc1I (relative stereo)", "logP": "3.30^[b]"}
{"compound": "O=C(NC1CCC1c1ccc(F)cc1C(F)(F)F)c1ncc(C(F)(F)F)cc1Cl (centres unmarked) [Example 480]", "logP": "4.23^[b]"}
{"compound": "O=C(NC1CCCCC1c1ccc(Cl)cc1Cl)c1ccccc1C(F)(F)F (centres unmarked)", "logP": "4.49^[b]"}
{"compound": "O=C(N[C@@H]1CC[C@H]1c1ccc(F)cc1C(F)(F)F)c1nccnc1Cl (relative stereo)", "logP": "3.16^[b]"}
{"compound": "Cc1nc(C(F)(F)F)c(C(=O)N[C@@H]2CC[C@@H]2c2ccccc2Cl)s1 (relative stereo)", "logP": "3.15^[b]"}
{"compound": "O=C(NC1CCCCC1c1ccccc1C(F)(F)F)c1ccccc1I (centres unmarked) [Example 389]", "logP": "4.13^[b]"}
{"compound": "Cc1nc(C(F)(F)F)c(C(=O)N[C@@H]2CC[C@@H]2c2cc(F)ccc2C(F)(F)F)s1 (relative stereo)", "logP": "3.40^[b]"}
